- system.name: E. coli Uridine-diphosphate-N-acetylmuramoyl-L-alanine: D-glutamate liease, MurD (Escherichia coli)
- Sequence (P14900 whole entry): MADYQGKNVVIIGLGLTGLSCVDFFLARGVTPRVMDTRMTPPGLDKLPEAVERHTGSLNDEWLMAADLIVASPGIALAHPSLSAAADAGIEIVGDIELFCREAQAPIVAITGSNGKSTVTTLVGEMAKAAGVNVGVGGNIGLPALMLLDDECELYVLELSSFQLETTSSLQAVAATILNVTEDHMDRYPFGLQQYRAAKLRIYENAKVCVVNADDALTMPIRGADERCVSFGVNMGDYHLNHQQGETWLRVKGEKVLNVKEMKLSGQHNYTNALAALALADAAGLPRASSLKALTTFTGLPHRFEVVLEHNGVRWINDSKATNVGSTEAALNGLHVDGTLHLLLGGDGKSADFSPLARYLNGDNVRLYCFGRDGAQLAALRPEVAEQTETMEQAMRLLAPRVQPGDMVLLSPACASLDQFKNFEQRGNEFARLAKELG
pIC50: −log10 of the molar value.
Please provide measured pIC50 for the entries that follow.

Exercise: Which pIC50 value is on record for `O=C1O/C(=C\c2cc(C(F)(F)F)ccc2F)C(O)=C1c1ccc(-c2ccccc2)cc1` ?
Key: < 4.23

Exercise: Let us now turn to `O=C1O/C(=C\c2cccc3ccccc23)C(O)=C1c1ccc(C(F)(F)F)cc1`
Key: < 4.18

Exercise: Let us now turn to `COc1ccc(C2=C(O)/C(=C/c3ccc(-c4ccccc4)cc3)OC2=O)cc1`
Key: < 4.17

Exercise: Let us now turn to `O=C1O/C(=C\c2ccc3ccccc3c2)C(O)=C1c1ccc(Cl)cc1`
Key: < 4.14

Exercise: Let us now turn to O=C1O/C(=C\c2cc(F)cc(C(F)(F)F)c2)C(O)=C1c1cccc(-c2ccccc2)c1 [Example 109]
Key: < 4.23

Exercise: Let us now turn to `Cc1ccc(/C=C2\OC(=O)C(c3cccc(C(F)(F)F)c3)=C2O)s1`
Key: < 4.15

Exercise: Let us now turn to `Cc1ccccc1C1=C(O)/C(=C/c2ccc(-c3ccccc3C)cc2)OC1=O`
Key: < 4.17

Exercise: Let us now turn to `CCOc1ccc(-c2ccc(C3=C(O)/C(=C/c4cc(C(F)(F)F)ccc4F)OC3=O)cc2)cc1`
Key: < 4.27

Exercise: Let us now turn to O=C1O/C(=C\c2cc(F)cc(C(F)(F)F)c2)C(O)=C1c1cccc(-c2ccccc2)c1 [Example 112]
Key: < 4.23

Exercise: Let us now turn to `O=C1O/C(=C\C2CCCCC2)C(O)=C1c1ccc(Cl)cc1`
Key: < 4.09

Exercise: Let us now turn to `O=C1O/C(=C\C2CCCCC2)C(O)=C1c1ccc2ccccc2c1`
Key: < 4.11

Exercise: Let us now turn to `CCCc1ccc(-c2ccc(C3=C(O)/C(=C/c4cccc(C(F)(F)F)c4Cl)OC3=O)cc2)cc1`
Key: < 4.29

Exercise: Let us now turn to `Cc1ccc(/C=C2\OC(=O)C(c3ccc4ccccc4c3)=C2O)s1`
Key: < 4.13

Exercise: Let us now turn to O=C1O/C(=C\c2ccc(-c3ccccc3)cc2)C(O)=C1c1cc(Cl)cc(Cl)c1 [Example 68]
Key: 4.57

Exercise: Let us now turn to `CC(C)(C)c1ccc(-c2ccc(C3=C(O)/C(=C/c4cccc(C(F)(F)F)c4Cl)OC3=O)cc2)cc1`
Key: < 4.30

Exercise: Let us now turn to `O=C1O/C(=C\C2CCCCC2)C(O)=C1c1ccc(-c2ccccc2)cc1`
Key: < 4.14

Exercise: Let us now turn to `O=C1O/C(=C\c2ccc3ccccc3c2)C(O)=C1c1ccc2ccccc2c1`
Key: 4.20

Exercise: Let us now turn to `CCOc1ccc(-c2ccc(C3=C(O)/C(=C/c4cccc(C(F)(F)F)c4)OC3=O)cc2)cc1`
Key: 4.31

Exercise: Let us now turn to `O=C1O/C(=C\c2ccccc2C(F)(F)F)C(O)=C1c1ccc(-c2ccccc2)c(F)c1`
Key: < 4.23

Exercise: Let us now turn to `O=C1O/C(=C\c2ccc(-c3ccccc3)cc2)C(O)=C1c1cccc(C(F)(F)F)c1`
Key: 4.29

Exercise: Let us now turn to O=C1O/C(=C\c2ccc(-c3ccccc3)cc2)C(O)=C1c1cc(Cl)cc(Cl)c1 [Example 67]
Key: 4.66

Exercise: Let us now turn to `CC(C)(C)c1ccc(-c2ccc(C3=C(O)/C(=C/c4cc(C(F)(F)F)ccc4Cl)OC3=O)cc2)cc1`
Key: < 4.30

Exercise: Let us now turn to `COc1ccc(C2=C(O)/C(=C/c3cccc4ccccc34)OC2=O)cc1`
Key: < 4.14

Exercise: Let us now turn to `O=C1O/C(=C\c2ccccc2C(F)(F)F)C(O)=C1c1ccc(-c2ccccc2)cc1`
Key: < 4.21

src = patent US7495027B2
